System: OVCAR-4 ovarian
EXPERIMENT DESCRIPTION: NCI-60 one-dose screen, 48 h (100 = growth as untreated, 0 = no growth, -100 = all killed)
EXPERIMENTAL PARAMETERS: 10 µM
The panel holds about 83,000 compounds, 20% with a hit somewhere; the sample as a whole holds those more often.
Threshold check on growth: strictly below 80% is Condition met; on or above 80% is Condition not met.

Illustrative cases are given below, each with its answer.
O=C(Nc1ccc(OCc2nnc(-c3ccccc3)o2)c(F)c1)Nc1ccc(Cl)c(Cl)c1; Condition met
CC(=O)Nc1nc(C)c(C(=O)N/N=C/c2cccn2C)s1; Condition not met
O/N=C1\CCC2CCCCC2C1 (configuration not stated); Condition not met
N#Cc1cnc2ccc(NCc3cnc[nH]3)cc2c1Nc1ccc(F)c(Cl)c1; Condition met
Cc1ccc(/C=C2\CN(Cc3cn(CCNc4ccnc5cc(Cl)ccc45)nn3)C/C(=C\c3ccc(C)cc3)C2=O)cc1; Condition met

**Query** Is growth of Cc1ccccc1C1=N[C@@H](Cc2ccccc2)C(=O)c2c(nc3ccccn23)N1 strictly below 80%?
**Result** Condition not met

**Query** I wonder whether NS(=O)(=O)c1ccc(N2N=C(c3ccc(-c4ccccc4)cc3)CC2c2ccc(Cl)cc2)cc1 (configuration not stated) has growth below 80%. Can you tell?
**Result** Condition met

**Query** Dear colleague, could you confirm whether growth of CCCc1ccnc(NS(=O)(=O)c2ccc(N)cc2)n1 falls below 80%? Thanks.
**Result** Condition met

**Query** Record c1ccc(COCC[P+](c2ccccc2)(c2ccccc2)c2ccccc2)cc1 : is its growth strictly below 80%?
**Result** Condition met
